target.under.test: AChE from SK—N—SH cells (Homo sapiens, UniProt P22303)
Construct: The assay solution consisted of AChE from neuronal cells; endogenous in cells
assay.procedure: Neuronal AChE activity, enzyme preparation from SK-N-SH cells

molecule	target.under.test	unit.spec	IC50
COc1cc2c(cc1OC)C(=O)C(CNCCCCCCCNc1c3c(nc4ccccc14)CCCC3)C2 (stereo not shown) [Compound 1]	AChE from SK—N—SH cells (Homo sapiens, UniProt P22303)	nM	109

----------
target.under.test: AChE from SH—SY5Y cells (Homo sapiens)
Construct: The assay solution consisted of AChE from neuronal cells; endogenous in cells
assay.procedure: Neuronal AChE activity, enzyme preparation from SH-SY5Y cells
experimental.context: pH 8, 0.5 mM acetylthiocholine iodide, read-out: IC50 AChE SH-SY5Y (human neuroblastoma)
pIC50: −log10 of the molar value.

molecule	target.under.test	pIC50
COc1cc2c(cc1OC)C(=O)C(CNCCCCCCCNc1c3c(nc4ccccc14)CCCC3)C2 (stereo not shown)	AChE from SH—SY5Y cells (Homo sapiens)	5.36

----------
Here's what we have: IC50 numbers for AChE from human erythrocytes (Homo sapiens, UniProt P22303).
reported.metric: IC50

compound	recorded.measurement
COc1cc2c(cc1OC)C(=O)C(CNCCCCCCNc1c3c(nc4ccccc14)CCCC3)C2 (centres unmarked)	100 nM
COc1cc2c(cc1OC)C(=O)C(CNCCCCCCCNc1c3c(nc4ccccc14)CCCC3)C2 (centres unmarked)	25 nM

----------
target.under.test: AChE peripheral site (Homo sapiens, UniProt P22303)
Sequence (P22303 32-614): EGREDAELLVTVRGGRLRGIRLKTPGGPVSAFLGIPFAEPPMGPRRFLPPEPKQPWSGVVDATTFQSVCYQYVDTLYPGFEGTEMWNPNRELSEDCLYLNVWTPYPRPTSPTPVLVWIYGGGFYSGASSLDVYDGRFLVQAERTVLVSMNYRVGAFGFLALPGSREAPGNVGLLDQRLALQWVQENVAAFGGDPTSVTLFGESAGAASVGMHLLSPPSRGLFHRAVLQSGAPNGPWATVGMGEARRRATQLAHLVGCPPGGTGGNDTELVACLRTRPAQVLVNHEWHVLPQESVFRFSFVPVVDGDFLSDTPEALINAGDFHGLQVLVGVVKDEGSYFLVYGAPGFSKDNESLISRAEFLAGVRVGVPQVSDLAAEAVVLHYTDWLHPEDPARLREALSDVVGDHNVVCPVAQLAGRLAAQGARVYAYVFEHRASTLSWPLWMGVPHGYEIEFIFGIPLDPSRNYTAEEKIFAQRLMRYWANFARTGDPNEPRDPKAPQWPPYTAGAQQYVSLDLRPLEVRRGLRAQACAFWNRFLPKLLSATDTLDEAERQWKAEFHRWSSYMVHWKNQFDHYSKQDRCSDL
assay.procedure: Propidium competition (fluorescence)
Format: binding
experimental.context: 20 μM propidium iodide, AChE incubated at least 6 hours with compound

smiles	measurement.qualifier	Propidium competition, µM
CCn1c(=NCCCCCCNc2c3c(nc4ccccc24)CCCC3)sn(C(C)C)c1=O	>	100
O=C1c2ccccc2C(=O)N1CCCCCCCCCNc1c2ccccc2nc2ccccc12	=	1
O=C1c2ccccc2C(=O)N1CCCCCCNc1c2ccccc2nc2ccccc12	=	10
CCn1c(=NCCCCCCCCNc2c3c(nc4ccccc24)CCCC3)sn(C(C)C)c1=O	=	0.1
O=C1c2ccccc2C(=O)N1CCCCCCCNc1c2c(nc3ccccc13)CCCC2	=	10
Clc1ccc2c(NCCCCCCCCNc3c4ccccc4nc4ccccc34)c3c(nc2c1)CCCC3	=	10
CN(CCCNc1c2c(nc3ccccc13)CCCC2)CCCNc1c2ccccc2nc2ccccc12	=	1000
O=C(CN1C(=O)c2ccccc2C1=O)NCCCCCCCNc1c2c(nc3cc(Cl)ccc13)CCCC2	=	10

----------
System: human neuroblastoma cell line SH—SY5Y
assay.procedure: Toxicity measurement (LDH) in SH-SY5Y cells
Format: cell-based
experimental.context: 24 hours exposure
Experimental: The cytotoxicity effect of the molecules was tested in the human neuroblastoma cell line SH—SY5Y. […] The cells were plated at 10^4 cells for each well, at least, 48 hours before the toxicity measure. Cells were exposed for 24 hours to the compounds at different concentrations (from 10^−5 to 10^−9), quantitative assessment of cell death was made by measurement of the intracellular enzyme lactate dehydrogenase (LDH) (citotoxicity detection kit, Roche). […]

compound	measurement.qualifier	Toxicity, µM
O=C(CN1C(=O)c2ccccc2C1=O)NCCCCCCCNc1c2c(nc3cc(Cl)ccc13)CCCC2 [Compound 10]	>	100
CN(CCCNc1c2c(nc3cc(Cl)ccc13)CCCC2)CCCNc1c2c(nc3cc(Cl)ccc13)CCCC2 [Compound 19]	=	10
O=C1c2ccccc2C(=O)N1CCCCCCCCNc1c2ccccc2nc2ccccc12 [Compound 8]	=	100
O=C1c2ccccc2C(=O)N1CCCCCCCNc1c2ccccc2nc2ccccc12 [Compound 7]	>	100
Clc1ccc2c(NCCCCCCCCNc3c4ccccc4nc4ccccc34)c3c(nc2c1)CCCC3 [Compound 24]	=	5
O=C1c2ccccc2C(=O)N1CCCCCCCCNc1c2c(nc3ccccc13)CCCC2 [Compound 5]	=	5
O=C1c2ccccc2C(=O)N1CCCCCCNc1c2ccccc2nc2ccccc12 [Compound 6]	>	100
CN(CCCNC(=O)CN1C(=O)c2ccccc2C1=O)CCCNc1c2c(nc3cc(Cl)ccc13)CCCC2 [Compound 11]	>	100

----------
target.under.test: BuChE from human serum (Homo sapiens, UniProt P06276)
Construct: The assay solution consisted of 0.01 units BuChE from human serum; from tissue; host or cells: human serum
Sequence (P06276 29-602): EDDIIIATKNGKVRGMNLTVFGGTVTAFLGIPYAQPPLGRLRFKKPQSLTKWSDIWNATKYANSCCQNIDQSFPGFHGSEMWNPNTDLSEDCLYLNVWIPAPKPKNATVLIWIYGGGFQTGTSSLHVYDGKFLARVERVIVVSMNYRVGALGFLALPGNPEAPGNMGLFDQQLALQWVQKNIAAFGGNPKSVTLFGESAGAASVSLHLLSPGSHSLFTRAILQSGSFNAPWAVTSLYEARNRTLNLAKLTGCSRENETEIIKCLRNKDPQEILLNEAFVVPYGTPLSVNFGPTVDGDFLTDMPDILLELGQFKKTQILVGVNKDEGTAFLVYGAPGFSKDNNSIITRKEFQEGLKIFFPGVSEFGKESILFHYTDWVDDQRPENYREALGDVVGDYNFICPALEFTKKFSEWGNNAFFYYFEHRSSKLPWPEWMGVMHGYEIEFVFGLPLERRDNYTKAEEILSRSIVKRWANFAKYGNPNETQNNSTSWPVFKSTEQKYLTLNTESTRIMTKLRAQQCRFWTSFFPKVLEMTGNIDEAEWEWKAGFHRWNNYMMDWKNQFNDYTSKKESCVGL
assay.procedure: Butyrylcholinesterase (BuChE) inhibition (from human serum)
Format: biochemical
experimental.context: human serum BuChE, 30° C., 10 min preincubation; read-out: IC50 BuChE
Description: Butyrylcholinetersae (BuChE) Inhibition (from Human Serum) […]
Measured IC50 values are reported for all entries that follow.

smiles	unit.spec	IC50
CN(CCCNc1c2c(nc3ccccc13)CCCC2)CCCNc1c2ccccc2nc2ccccc12	nM	70
Clc1ccc2c(NCCCCCCCNc3c4ccccc4nc4ccccc34)c3c(nc2c1)CCCC3	nM	20
O=C1c2ccccc2C(=O)N1CCCCCCCNc1c2c(nc3ccccc13)CCCC2	nM	10
Clc1ccc2c(NCCCCCCCCNc3c4ccccc4nc4ccccc34)c3c(nc2c1)CCCC3	nM	35

----------
target.under.test: BuChE from human serum (Homo sapiens)
Construct: The assay solution consisted of 0.01 units BuChE from human serum; from tissue; host or cells: human serum
assay.procedure: Butyrylcholinesterase (BuChE) inhibition (from human serum)
Format: biochemical
experimental.context: human serum BuChE, 30° C., 10 min preincubation; read-out: IC50 BuChE

smiles	IC50
O=C1c2ccccc2C(=O)N1CCCCCCCNc1c2ccccc2nc2ccccc12	700 nM
CCn1c(=NCCCCCCCCNc2c3c(nc4ccccc24)CCCC3)sn(C(C)C)c1=O	10 nM
CN(CCCNC(=O)CN1C(=O)c2ccccc2C1=O)CCCNc1c2c(nc3cc(Cl)ccc13)CCCC2	75 nM

----------
target.under.test: BuChE from human serum (Homo sapiens, UniProt P06276)
Construct: The assay solution consisted of 0.01 units BuChE from human serum; from tissue; host or cells: human serum
assay.procedure: Butyrylcholinesterase (BuChE) inhibition (from human serum)
Type: biochemical
experimental.context: human serum BuChE, 30° C., 10 min preincubation; read-out: IC50 BuChE
pIC50: −log10 of the molar value.
Measured pIC50 values are reported for all entries that follow.
reported.metric: pIC50

smiles	reported.metric	recorded.measurement
CCCn1s/c(=N\CCCCCCCNc2c3c(nc4ccccc24)CCCC3)n(CC)c1=O	pIC50	7.70
O=C1c2ccccc2C(=O)N1CCCCCCNc1c2ccccc2nc2ccccc12	pIC50	8.10
O=C(CN1C(=O)c2ccccc2C1=O)NCCCCCCNc1c2c(nc3cc(Cl)ccc13)CCCC2	pIC50	6.70
O=C1c2ccccc2C(=O)N1CCCCCCCCNc1c2ccccc2nc2ccccc12	pIC50	6.00
O=C1c2ccccc2C(=O)N1CCCCCCCCCNc1c2ccccc2nc2ccccc12	pIC50	7.05
O=C(CN1C(=O)c2ccccc2C1=O)NCCCCCCCNc1c2c(nc3cc(Cl)ccc13)CCCC2	pIC50	6.19
O=C1c2ccccc2C(=O)N1CCCCCCCCNc1c2c(nc3ccccc13)CCCC2	pIC50	7.52
CN(CCCNc1c2c(nc3cc(Cl)ccc13)CCCC2)CCCNc1c2c(nc3cc(Cl)ccc13)CCCC2	pIC50	8.82
